assay: Cytotoxicity against mouse EMT6V cells after 4 hrs under aerobic conditions; type: functional, cell-based
Result type: IC50

Name the recorded IC50 of the item CN(C)CCOc1ccc(/C=C/C(=O)N2CC(CCl)c3c2cc(O)c2ncccc32)cc1 (stereo not given) in your answer.
0.58 nM

Name the recorded IC50 of the item COc1cc2cc(C(=O)N3CC(CCl)c4c3cc(O)c3ncccc43)[nH]c2c(OC)c1OC (racemic) in your answer.
0.05 nM

Name the recorded IC50 of the item COc1cc2cc(C(=O)N3C[C@@H](CCl)c4c3cc(O)c3ncccc43)[nH]c2c(OC)c1OC in your answer.
0.03 nM

Name the recorded IC50 of the item COc1cc2cc(C(=O)N3C[C@H](CCl)c4c3cc(O)c3ncccc43)[nH]c2c(OC)c1OC in your answer.
7.3 nM

Name the recorded IC50 of the item CN(C)CCOc1ccc2[nH]c(C(=O)N3CC(CCl)c4c3cc(O)c3ncccc43)cc2c1 (stereo not given) in your answer.
0.74 nM

* * *

Record form. Attribute: log10 solubility. Fill in for each entry.
assay: Solubility in alpha-MEM in presence of FCS; assay type: physicochemical; details: alpha-MEM with FCS
Hello, just confirming the data are log10 of solubility with units of µM.

Name the recorded log10 solubility of the item COc1ccc2[nH]c(C(=O)N3CC(CCl)c4c3cc(O)c3ncccc43)cc2c1 (stereo unspecified) in your answer.
2.04

Name the recorded log10 solubility of the item COc1ccc(/C=C/C(=O)N2CC(CCl)c3c2cc(O)c2ncccc32)cc1O (stereo unspecified) in your answer.
2.04

Name the recorded log10 solubility of the item CN(C)CCOc1ccc(/C=C/C(=O)N2CC(CCl)c3c2cc(O)c2ncccc32)cc1 (stereo unspecified) in your answer.
2.93

Name the recorded log10 solubility of the item CN(C)CCOc1ccc2[nH]c(C(=O)N3CC(CCl)c4c3cc(O)c3ncccc43)cc2c1 (stereo unspecified) in your answer.
1.51

Name the recorded log10 solubility of the item COc1ccc(/C=C/C(=O)N2CC(CCl)c3c2cc(O)c2ncccc32)cc1 (stereo unspecified) in your answer.
1.60

Name the recorded log10 solubility of the item COc1cc2cc(C(=O)N3CC(CCl)c4c3cc(O)c3ncccc43)[nH]c2c(OC)c1OC (racemic) in your answer.
1.48

Hello, the source for this data is ChEMBL document CHEMBL1154614, in case you need it.
